Reference source: patent EP1733758A1

Assay: Pharmacokinetics and tissue distribution after bolus IV, IP, SC and PO administration in mice
Assay type: in vivo, female Crl: CD1 mice
Settings: female, Crl:CD1, mouse, plasma, 30 mg/kg bolus IV, within one hour
Measured Property: concentration at 1 h
Answer as a quantity: numeral, then unit.

Data point: "CC(C)=CCC/C(C)=C/CC/C(C)=C/CN1C(=O)c2cccc(O)c2Nc2c(O)cc(O)cc21" ; concentration at 1 h = 1300 nM

---

Experiment: Population pharmacokinetic analysis (NONMEM), monkey
Assay type: in vivo
Details: monkey, plasma, intravenous; monkeys, 14-day continuous infusion, 5 mg/kg/day (Example 9 analysis)
Measured Property: clearance
Hi, when you answer, please include the unit after the number. Thanks!

Noted for "CC(C)=CCC/C(C)=C/CC/C(C)=C/CN1C(=O)c2cccc(O)c2Nc2c(O)cc(O)cc21" : its clearance reads 10.5 mL/min/kg
